molecular target: HLA-B*18:01; experiment: IEDB peptide-MHC binding, purified MHC/competitive/radioactivity; filed as Kd, often an IC50 or EC50 that approximates it; bounds were set here for any values at or beyond the usual limits of such assays; conditions: source organism: Lassa virus Josiah
QUANTITY: Kd

>>> test_result("SEGKDTPGGY")
"≥ 59.6 µM"

----------
biological target: HLA-B*57:01; test: IEDB peptide-MHC binding, purified MHC/competitive/fluorescence; filed as Kd, often an IC50 or EC50 that approximates it; bounds were set here for any values at or beyond the usual limits of such assays; details: source organism: Human immunodeficiency virus 1
pKd: −log10 of the molar value.
QUANTITY: pKd

>>> test_result("KSLFNTIAVLY")
6.72

----------
target: HLA-B*44:02; assay: IEDB peptide-MHC binding, purified MHC/competitive/radioactivity; filed as Kd, often an IC50 or EC50 that approximates it; bounds were set here for any values at or beyond the usual limits of such assays; conditions: source organism: Mammarenavirus juninense
QUANTITY: Kd

>>> test_result("PDSCLNGKL")
"≥ 77.9 µM"

----------
biological target: HLA-B*18:01; test: IEDB peptide-MHC binding, purified MHC/competitive/fluorescence; filed as Kd, often an IC50 or EC50 that approximates it; bounds were set here for any values at or beyond the usual limits of such assays; details: source organism: Entamoeba histolytica HM-1:IMSS
pKd: −log10 of the molar value.
QUANTITY: pKd

>>> test_result("KTRMEDYYL")
"≤ 4.70"

----------
molecular target: HLA-B*27:05; assay: IEDB peptide-MHC binding, purified MHC/direct/fluorescence; filed as Kd, often an IC50 or EC50 that approximates it; bounds were set here for any values at or beyond the usual limits of such assays; settings: source organism: Mycobacterium tuberculosis
QUANTITY: Kd

>>> test_result("QINELHHSK")
"≥ 20 µM"

----------
molecular target: HLA-B*44:03; assay: IEDB peptide-MHC binding, purified MHC/competitive/radioactivity; filed as Kd, often an IC50 or EC50 that approximates it; bounds were set here for any values at or beyond the usual limits of such assays; details: source organism: Mammarenavirus juninense
QUANTITY: Kd

>>> test_result("PDSCLNGKL")
"≥ 78.1 µM"

----------
target: HLA-B*08:01; assay: IEDB peptide-MHC binding, purified MHC/competitive/radioactivity; filed as Kd, often an IC50 or EC50 that approximates it; bounds were set here for any values at or beyond the usual limits of such assays; details: source organism: Dengue virus 4 Dominica/814669/1981
QUANTITY: Kd (nM)

>>> test_result("GASRRSWPL")
14

----------
target: HLA-B*07:02; assay: IEDB peptide-MHC binding, purified MHC/direct/fluorescence; filed as Kd, often an IC50 or EC50 that approximates it; bounds were set here for any values at or beyond the usual limits of such assays; details: source organism: Yellow fever virus
pKd: −log10 of the molar value.
QUANTITY: pKd

>>> test_result("FHERGYVKL")
"≤ 4.70"

----------
biological target: HLA-A*11:01; test: IEDB peptide-MHC binding, purified MHC/direct/fluorescence; filed as Kd, often an IC50 or EC50 that approximates it; bounds were set here for any values at or beyond the usual limits of such assays; conditions: source organism: Pseudomonas putida
QUANTITY: Kd

>>> test_result("DLSNSMRDF")
"≥ 20 µM"

----------
target: HLA-B*07:02; experiment: IEDB peptide-MHC binding, purified MHC/direct/fluorescence; filed as Kd, often an IC50 or EC50 that approximates it; bounds were set here for any values at or beyond the usual limits of such assays; settings: source organism: Rickettsia conorii
QUANTITY: Kd

>>> test_result("RTGDIGCFK")
"≥ 20 µM"

----------
target: HLA-B*15:01; assay: IEDB peptide-MHC binding, purified MHC/competitive/fluorescence; filed as Kd, often an IC50 or EC50 that approximates it; bounds were set here for any values at or beyond the usual limits of such assays; conditions: source organism: Yersinia pestis Nepal516
QUANTITY: Kd

>>> test_result("SMLCWLGMT")
"≥ 20 µM"

----------
biological target: HLA-A*68:02; test: IEDB peptide-MHC binding, purified MHC/direct/fluorescence; filed as Kd, often an IC50 or EC50 that approximates it; bounds were set here for any values at or beyond the usual limits of such assays; details: source organism: Salmonella enterica subsp. enterica serovar Typhimurium str. LT2
pKd: −log10 of the molar value.
QUANTITY: pKd

>>> test_result("FTGEYLLRL")
"≤ 4.70"

----------
target: HLA-A*33:01; test: IEDB peptide-MHC binding, purified MHC/competitive/radioactivity; filed as Kd, often an IC50 or EC50 that approximates it; bounds were set here for any values at or beyond the usual limits of such assays; conditions: source organism: Mammarenavirus whitewaterense
QUANTITY: Kd

>>> test_result("SLSPNDTTWI")
"≥ 60.7 µM"

----------
target: HLA-A*02:01; experiment: IEDB peptide-MHC binding, cellular MHC/competitive/fluorescence; bounds were set here for any values at or beyond the usual limits of such assays; conditions: source organism: Measles morbillivirus
QUANTITY: IC50 (nM)

>>> test_result("QLPEATFMV")
2000

----------
molecular target: HLA-B*15:01; assay: IEDB peptide-MHC binding, purified MHC/competitive/fluorescence; filed as Kd, often an IC50 or EC50 that approximates it; bounds were set here for any values at or beyond the usual limits of such assays; settings: source organism: Entamoeba histolytica
QUANTITY: Kd

>>> test_result("RASHFRKLF")
"≥ 20 µM"

----------
Below, each entry is listed alongside its reported pKd.
target: HLA-A*24:03; assay: IEDB peptide-MHC binding, purified MHC/direct/fluorescence; filed as Kd, often an IC50 or EC50 that approximates it; bounds were set here for any values at or beyond the usual limits of such assays; conditions: source organism: Ravn virus - Ravn, Kenya, 1987
pKd: −log10 of the molar value.
QUANTITY: pKd

>>> test_result("GLSFLNPEK")
"≤ 4.70"
>>> test_result("FPSNMMVVT")
"≤ 4.70"

----------
Below, each entry is listed alongside its reported Kd.
molecular target: HLA-A*02:02; assay: IEDB peptide-MHC binding, purified MHC/competitive/radioactivity; filed as Kd, often an IC50 or EC50 that approximates it; bounds were set here for any values at or beyond the usual limits of such assays; conditions: source organism: Vaccinia virus WR
QUANTITY: Kd (nM)

>>> test_result("VIRHVDGKI")
8550
>>> test_result("SANMDWRSLT")
1790
>>> test_result("LLFASMGFK")
294
>>> test_result("SADNHPKMI")
8180
>>> test_result("ETIEILRNYL")
474
>>> test_result("MIGNYFSGVL")
712
>>> test_result("NTVGMSIVCI")
3020
>>> test_result("ALKNSQAELT")
2120
>>> test_result("GLSSGFYFEI")
48.3
>>> test_result("IVNNFITKEI")
1470
>>> test_result("NVIEDITFL")
146
>>> test_result("RTNDLTALL")
3.66
>>> test_result("ALMTLDDLAI")
14.2

----------
target: HLA-B*07:02; experiment: IEDB peptide-MHC binding, purified MHC/competitive/radioactivity; filed as Kd, often an IC50 or EC50 that approximates it; bounds were set here for any values at or beyond the usual limits of such assays; settings: source organism: Dengue virus 3 Martinique/1243/1999
Below, each entry is listed alongside its reported Kd.
QUANTITY: Kd (nM)

>>> test_result("SPPETQKAEL")
28.4
>>> test_result("VPMAGPLVA")
56
>>> test_result("TPMLRHTIEN")
1020
>>> test_result("CPTQGEAVL")
53.7

----------
target: HLA-B*15:17; experiment: IEDB peptide-MHC binding, purified MHC/direct/fluorescence; filed as Kd, often an IC50 or EC50 that approximates it; bounds were set here for any values at or beyond the usual limits of such assays; conditions: source organism: Marburg virus - Musoke, Kenya, 1980
QUANTITY: Kd

>>> test_result("CVFKFIVAK")
"≥ 20 µM"

----------
target: HLA-A*26:01; assay: IEDB peptide-MHC binding, purified MHC/direct/fluorescence; filed as Kd, often an IC50 or EC50 that approximates it; bounds were set here for any values at or beyond the usual limits of such assays; conditions: source organism: Campylobacter jejuni
QUANTITY: Kd

>>> test_result("SFGAGTLAK")
"≥ 20 µM"

----------
target: HLA-A*11:01; experiment: IEDB peptide-MHC binding, purified MHC/direct/fluorescence; filed as Kd, often an IC50 or EC50 that approximates it; bounds were set here for any values at or beyond the usual limits of such assays; conditions: source organism: Camelpox virus M-96
QUANTITY: Kd

>>> test_result("LEYGANYFL")
"≥ 20 µM"

----------
target: HLA-B*53:01; assay: IEDB peptide-MHC binding, purified MHC/competitive/radioactivity; filed as Kd, often an IC50 or EC50 that approximates it; bounds were set here for any values at or beyond the usual limits of such assays; settings: source organism: Mammarenavirus lassaense
pKd: −log10 of the molar value.
QUANTITY: pKd

>>> test_result("CPNCYDSVM")
7.10
